B1: MATN2 (parent)
chain: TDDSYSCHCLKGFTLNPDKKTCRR

Variants of: B1
method: protein stability index of a GFP-peptide fusion (GPS, HEK-293T) (PSI 1-6); higher = more stable;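 note: lentivirally expressed fusions sorted by FACS into six bins by GFP to DsRed ratio, PSI derived from sequencing read proportions per bin multiplied by bin number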
test.parameters: c terminus: a fixed tail appended
Is protein stability index at least 2? Then YES. If not, NO.

variant.string	qualitative.label
L15C	YES
K19Q	YES
P17H	YES
L10D	YES
N16F	NO
S6M	NO
C22W	NO
L10E	YES
L15P	YES
K20E	YES
S6I	NO
T21G	NO
